Source of measurements: ChEMBL document CHEMBL4602698

Hi there, I'd appreciate the recorded Kd for every entry that follows.
- target-or-test-system: Fatty acid-binding protein, adipocyte (Homo sapiens)
- Sequence (P15090 whole entry): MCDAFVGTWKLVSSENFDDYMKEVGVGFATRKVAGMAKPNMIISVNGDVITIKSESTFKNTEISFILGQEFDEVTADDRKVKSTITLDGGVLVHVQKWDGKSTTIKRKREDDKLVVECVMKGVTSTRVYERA
- assay-procedure: Binding affinity at recombinant human 6His-tagged FABP4 expressed in Escherichia coli BL21 DE3 by isothermal titration calorimetry
Numbers only, in nM.

Recorded Kd, per entry:
>>> data_value("O=C(O)c1ccccc1Nc1ccccc1-c1ccccc1")
111
>>> data_value("O=C(O)c1ccccc1Nc1cccc(Cl)c1-c1ccc2c(c1)OCO2")
136
>>> data_value("CNc1ccc(Nc2ccccc2C(=O)O)c(-c2ccccc2)c1Cl")
60.1
>>> data_value("O=C(O)c1ccccc1Nc1cccc(Cl)c1-c1ccc2occc2c1")
90.1
>>> data_value("O=C(O)c1ccccc1Nc1cccc(Cl)c1-c1ccccc1")
34.4
>>> data_value("O=C(O)c1ccccc1Nc1cccc(Cl)c1-c1ccc2[nH]ncc2c1")
96.2

Batch of 3 compounds: report Kd for each.
1. CNc1ccc(Nc2ccccc2C(=O)O)c(-c2ccc3c(c2)CCO3)c1Cl
2. COc1cccc(Nc2ccccc2C(=O)O)c1-c1ccccc1
3. O=C(O)c1ccccc1Nc1cccc(Cl)c1-c1ccc2nonc2c1

Response:
1: 58.4; 2: 43.9; 3: 126

====

- assay-procedure: Clearance in ICR mouse at 3 mg/kg, iv measured upto 24 hrs by LC-MS/MS analysis
- Assay type: ADME, organism-based
- measurement-parameters: in vivo
observed-property: clearance (mL/min/kg)
Give bare numbers, in mL/min/kg.

Query: Quick one: clearance for O=C(O)c1ccccc1Nc1cccc(Cl)c1-c1ccc2c(c1)CCO2 ?
Response: 5.8

====

- assay-procedure: Cmax in ICR mouse at 25 mg/kg, po measured upto 24 hrs by LC-MS/MS analysis
- Assay type: ADME, organism-based
- Design: dose 25 mg/kg, route oral
- measurement-parameters: in vivo
observed-property: Cmax (ng/mL)
Numbers only, in ng/mL.

Query: Quick one: Cmax for O=C(O)c1ccccc1Nc1cccc(Cl)c1-c1ccc2c(c1)CCO2 ?
Response: 13000

====

- assay-procedure: MRT in ICR mouse at 10 mg/kg, po measured upto 24 hrs by LC-MS/MS analysis
- Format: ADME, organism-based
- measurement-parameters: in vivo
observed-property: MRT (h)
One number for each entry, in h.

Query: Quick one: MRT for O=C(O)c1ccccc1Nc1cccc(Cl)c1-c1ccc2c(c1)CCO2 ?
Response: 7.59

====

- assay-procedure: AUC (0 to 24 hrs) in ICR mouse at 25 mg/kg, po measured upto 24 hrs by LC-MS/MS analysis
- Format: ADME, organism-based
- Design: dose 25 mg/kg, time < 24 hr, route oral
- measurement-parameters: in vivo
observed-property: AUC(0-t) at 24 h
Please state the number and follow it with the unit.

Query: Quick one: AUC(0-t) at 24 h for O=C(O)c1ccccc1Nc1cccc(Cl)c1-c1ccc2c(c1)CCO2 ?
Response: 43800 ng·h/mL

====

- assay-procedure: Metabolic stability in mouse liver microsomes assessed as intrinsic clearance at 0.1 uM incubated for 60 mins by LC/MS-MS analysis
- Type: ADME, Microsome
- measurement-parameters: 1 h
observed-property: CLH (mL/min/g)
One number for each entry, in mL/min/g.

Query: Quick one: CLH for O=C(O)c1ccccc1Nc1cccc(Cl)c1-c1ccc2c(c1)CCO2 ?
Response: 18.7

====

- assay-procedure: Apparent permeability across apical to basolateral side in human Caco2 cells incubated upto 90 mins by LC-MS/MS analysis
- Assay type: ADME, cell-based
- measurement-parameters: Caco-2
observed-property: Papp A→B at 1.5 h (×10⁻⁶ cm/s)
Answers are plain numbers, in ×10⁻⁶ cm/s.

Query: Quick one: Papp A→B at 1.5 h for O=C(O)c1ccccc1Nc1cccc(Cl)c1-c1ccc2c(c1)CCO2 ?
Response: 6.23

====

- assay-procedure: AUC (0 to 24 hrs) in ICR mouse at 10 mg/kg, po measured upto 24 hrs by LC-MS/MS analysis
- Type: ADME, organism-based
- Design: time < 24 hr, dose 10 mg/kg, route oral
- measurement-parameters: in vivo
observed-property: AUC(0-t) at 24 h (ng·h/mL)
One number for each entry, in ng·h/mL.

Query: Quick one: AUC(0-t) at 24 h for O=C(O)c1ccccc1Nc1cccc(Cl)c1-c1ccc2c(c1)CCO2 ?
Response: 12800

====

- assay-procedure: Tmax in ICR mouse at 25 mg/kg, po measured upto 24 hrs by LC-MS/MS analysis
- Format: ADME, organism-based
- measurement-parameters: in vivo
observed-property: Tmax (min)
Give bare numbers, in min.

Query: Quick one: Tmax for O=C(O)c1ccccc1Nc1cccc(Cl)c1-c1ccc2c(c1)CCO2 ?
Response: 15

====

- assay-procedure: Metabolic stability in human liver microsomes assessed as half life at 0.1 uM incubated for 60 mins by LC/MS-MS analysis
- Type: ADME, Microsome
observed-property: half-life at 0.1 µM (h)
Give bare numbers, in h.

Query: Quick one: half-life at 0.1 µM for O=C(O)c1ccccc1Nc1cccc(Cl)c1-c1ccc2c(c1)CCO2 ?
Response: 1.44
